target_or_test_system: UniProtKB Q9BVG3
Sequence (Q9BVG3 whole entry, looked up): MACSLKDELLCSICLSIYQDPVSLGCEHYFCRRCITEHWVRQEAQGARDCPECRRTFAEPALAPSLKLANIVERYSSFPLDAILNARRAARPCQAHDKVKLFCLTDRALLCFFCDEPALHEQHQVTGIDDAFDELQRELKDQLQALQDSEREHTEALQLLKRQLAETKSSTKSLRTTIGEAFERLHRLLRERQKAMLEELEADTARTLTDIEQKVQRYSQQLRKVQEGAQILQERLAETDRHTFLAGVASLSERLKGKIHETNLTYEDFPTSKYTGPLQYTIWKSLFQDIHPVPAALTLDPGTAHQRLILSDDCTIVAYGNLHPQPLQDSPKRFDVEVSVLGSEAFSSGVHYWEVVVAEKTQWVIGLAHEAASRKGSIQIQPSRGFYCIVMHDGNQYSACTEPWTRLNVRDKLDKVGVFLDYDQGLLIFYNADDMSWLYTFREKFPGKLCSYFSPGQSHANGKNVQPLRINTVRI
test_details: inhibitors of TRIM62-driven CARD9 ubiquitylation, dose response, CARD9-TRIM62 disruptor project, biochemical, ubiquitin ELISA, AlphaLISA TUBE (AID 1259342);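 also: potency is for inhibitors that reduce CARD9 ubiquitylation signal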
condition_details: TRIM62-mediated CARD9 ubiquitylation, AlphaLISA TUBE detection
Calls of active or inactive are those of the source.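 The calls were made as follows: active = fitted half-maximal inhibitory concentration AC50 at most ten times the top concentration tested; inconclusive = flat fit with 30 to 70% inhibition, or unusable fit; inactive = AC50 above ten times the top concentration.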

| compound | AC50 |
| --- | --- |
| O=C(NCCCN1CCOCC1)c1cc(-c2ccco2)nc2ccccc12 | 11.3 µM |
| COCCn1c(C)cc(-c2csc(N)n2)c1C | 68.3 µM |
| Cc1c(C(=O)OCC2CCCO2)[nH]c2c1C(=O)CC(c1ccco1)C2 (stereo not given) | 38.1 µM |
| COc1ccc(NC(=O)CN(C)C(=O)c2cc(-c3ccco3)nc3ccccc23)cc1 | 16.6 µM |
| Cc1oc(CSCc2cc(C(=O)O)c(C)o2)cc1C(=O)O | > 160 µM (inactive) |
| Cc1cccc2nc(CSCc3ccco3)cn12 | 78.2 µM |
| N#Cc1c(NC(=O)CSc2nc3ccccc3o2)sc2c1CCC2 | 74.1 µM |
| O=C(O)c1ccc2nc(-c3ccco3)c(-c3ccco3)nc2c1 | 11.8 µM |
| Nc1ccccc1Sc1nccc(C(F)(F)F)n1 | > 160 µM (inactive) |
| N#Cc1c(N)oc(-c2ccco2)c1-c1ccco1 | 29.6 µM |
| N#CCSc1nc2c(c(=O)n1Cc1ccco1)C1(CCCC1)Cc1ccccc1-2 | 57 µM |
| O=C(CC1Nc2ccccc2OC1=O)Nc1ccc(Cl)cc1 (stereo not given) | > 160 µM (inactive) |
| CC(=O)Nc1ccc2nc3c(=O)n(C)c(=O)n(C)c3nc2c1 | 48.2 µM |
| Cc1nc(C)c(C(=O)Nc2ncc([N+](=O)[O-])s2)o1 | 3.96 µM |
| O=c1oc(/C=C/c2ccc([N+](=O)[O-])s2)nc2ccccc12 | > 160 µM (inactive) |
| CC1CCN(c2nc(-c3ccco3)c3c(c2C#N)CC(C)(C)OC3)CC1 | 17.6 µM |
| Cc1ccc(N2NC(c3ccc(Br)cc3)=CCC2=O)cc1 | > 160 µM (inactive) |
| CC(C)C(CC(=O)NCc1ccco1)c1ccco1 (stereo not given) | 5.47 µM |
| O=C(NCc1ccco1)c1c2c(nc3ccccc13)CCC2 | 17.3 µM |
| COc1cc(N)c(Cc2nccc3cc(OC)c(OC)cc23)cc1OC | 79.5 µM |
| CCOC(=O)c1[nH]c(Cc2[nH]c(C(=O)OCC)c(C)c2C)c(C)c1C | > 160 µM (inactive) |
| O=C(Nc1nc(-c2ccco2)c(-c2ccco2)s1)c1ccc(F)cc1F | > 160 µM (inactive) |
| COc1ccc(S(=O)(=O)N2CCOCC2)cc1NC(=O)c1cccc(-n2cccc2)c1 | 3.62 µM |
| Nc1cc2c(cc1O)CCCC2 | 49.4 µM |
| O=[N+]([O-])c1ccc2nn(Cc3ccccc3)cc2c1 | > 160 µM (inactive) |
| Cc1cccc(NC(=O)Cc2coc3ccc4ccccc4c23)n1 | 70 µM |
| O=C(COc1cccnc1[N+](=O)[O-])c1ccc(Cl)s1 | 26.2 µM |
| O=C(O)CCc1ccc(-c2cccs2)n1NC(=O)c1ccco1 | 63.5 µM |
| O=C(O)c1cc(-c2ccc(-c3ccc(F)cc3)o2)nc2ccccc12 | 31.4 µM |
| O=C(CN1CCN(c2ccccc2O)CC1)NC(=O)NC1CCCC1 | > 160 µM (inactive) |
| COc1ccc(NC(=O)c2nc(Nc3ccccc3)c3ccccc3n2)cc1 | 67.8 µM |
| CCN(CCNC(=O)C1CCN(S(=O)(=O)c2c(C)noc2C)CC1)c1ccccc1 | > 160 µM (inactive) |
| Cc1noc(CN(C)C(=O)c2cc(-c3ccco3)nc3c(C)c(Cl)ccc23)n1 | 49.2 µM |
| O=C(Cc1cccs1)Nc1nnc(Cc2ccccc2)s1 | 41.2 µM |
| O=C1CS/C(=N\N=C\c2ccco2)N1c1ccccc1 | 22.2 µM |
